# Test system: Klebsiella pneumoniae ATCC 13883
# Type: cell-based
# TEST_PARAMETERS: ATCC 13883
Where a SMILES comes first, the peptide text is derived from it. Bridges are numbered along the chain shown (N, C = ends). [ ]: non-standard residue; d: D form. Tle = CC(C)(C)[C@H](N)C(=O)O; dDab = NCC[C@@H](N)C(=O)O; hCys = N[C@@H](CCS)C(=O)O; Orn = NCCC[C@H](N)C(=O)O; Dab = NCC[C@H](N)C(=O)O; Dap = NC[C@H](N)C(=O)O
Entries and their Klebsiella pneumoniae ATCC 13883 MIC values follow.

# COMPOUND, Klebsiella pneumoniae ATCC 13883 MIC
rows = [
    ("CC(C)[C@@H]1NC(=O)[C@@H]2CCCN2C(=O)[C@H]2CCCN2C(=O)[C@H](CO)NC(=O)[C@@H]2CSSCC[C@H](NC1=O)C(=O)N[C@@H](Cc1ccc(O)cc1)C(=O)N[C@@H](CCN)C(=O)N[C@@H](CN)C(=O)N[C@H](CCN)C(=O)N[C@@H](CCN)C(=O)N[C@@H](Cc1c[nH]c3ccccc13)C(=O)N[C@@H](CCN)C(=O)N[C@@H](C(C)(C)C)C(=O)N2 [Example 39] (cyclo(V[hCys]Y[Dab][Dap][dDab][Dab]W[Dab][Tle]CS[dP]P); disulfide 2-11)", "1 µg/mL"),
]

Switching to the query record.
Read the entry C[C@@H]1NC(=O)[C@H](C(C)(C)C)NC(=O)[C@H](CCN)NC(=O)[C@H](Cc2c[nH]c3ccccc23)NC(=O)[C@H](CCN)NC(=O)[C@@H](CCN)NC(=O)[C@H](CCCN)NC(=O)[C@H](CCN)NC(=O)[C@H](Cc2ccc(O)cc2)NC(=O)[C@H](CN)NC(=O)[C@H](Cc2ccccc2)NC(=O)[C@H](Cc2ccc(O)cc2)NC(=O)[C@H]2CCCN2C(=O)[C@H](CO)NC1=O [Example 44] (cyclo(AS[dP]YF[Dap]Y[Dab][Orn][dDab][Dab]W[Dab][Tle])) and write its reported Klebsiella pneumoniae ATCC 13883 MIC. 0.25 µg/mL
